Origin of measurements: PubChem BioAssay (NCI)

Test system: SK-MEL-2 melanoma
assay name: NCI tumour cell line growth inhibition, 48 h
Below, each of the compounds is paired with its reported TGI value.
experimental readout: TGI

>  <compound>
Cc1ccc(Cl)cc1Nc1nc(C(F)(F)F)ccc1C(N)=O

>  <experimental readout>
TGI

>  <val>
> 100 µM

$$$$
>  <compound>
CC(C)NC(=O)OCc1c(COC(=O)NC(C)C)n(C)c2c1ccc1ccsc12

>  <experimental readout>
TGI

>  <val>
31.8 µM

$$$$
>  <compound>
COc1ccc(CN(Cc2ccc(OC)cc2)C(=O)CC2(O)CCc3ccccc3C2)cc1 (stereo not drawn)

>  <experimental readout>
TGI

>  <val>
> 100 µM

$$$$
>  <compound>
c1ccc(-c2ccc(-c3ccc(C4=NCCN4)cc3)o2)cc1

>  <experimental readout>
TGI

>  <val>
3.51 µM

$$$$
>  <compound>
CCCCCCCCCCCCCCCC(=O)Nc1ccn(C2OC(CO)C(O)C2O)c(=O)n1 (stereo not drawn)

>  <experimental readout>
TGI

>  <val>
> 100 µM

$$$$
>  <compound>
NC12CC3C4CC5(N)CC3C(C1)C(C5)C4C2

>  <experimental readout>
TGI

>  <val>
> 100 µM

$$$$
>  <compound>
N/N=C(\CCN1CCCC1)CC(c1ccccc1)c1c(O)c2ccccc2oc1=O (stereo not drawn)

>  <experimental readout>
TGI

>  <val>
> 100 µM

$$$$
>  <compound>
CCCCC(CCCC)=NNC(=S)SC

>  <experimental readout>
TGI

>  <val>
> 100 µM

$$$$
>  <compound>
COC(=O)c1ccc2[nH]c(O)c(C(=Nc3ccc(N(C)C(=O)CN4CCN(C)CC4)cc3)c3cccc(OC)c3)c2c1

>  <experimental readout>
TGI

>  <val>
4.51 µM

$$$$
>  <compound>
COc1nc(=O)cc(N)n1C1OC(CO)C(O)C1O (stereo not drawn)

>  <experimental readout>
TGI

>  <val>
> 100 µM

$$$$
>  <compound>
CC1=C(C(=O)OCCc2ccc([N+](=O)[O-])cc2)C(c2cccc([N+](=O)[O-])c2)C(C(=O)OC(C)C)=C(C)N1 (stereo not drawn)

>  <experimental readout>
TGI

>  <val>
> 100 µM

$$$$
>  <compound>
OC1CC1Sc1ccccc1 (stereo not drawn)

>  <experimental readout>
TGI

>  <val>
> 100 µM

$$$$
>  <compound>
C[C@H](Nc1ccc2c(c1)OCCn1cc(N3C(=O)OC[C@H]3C(F)F)nc1-2)C(N)=O

>  <experimental readout>
TGI

>  <val>
> 100 µM

$$$$
>  <compound>
COc1ccc(C2Oc3ccc(O)cc3[C@@H]2C)cc1OC (stereo partly drawn)

>  <experimental readout>
TGI

>  <val>
> 100 µM

$$$$
>  <compound>
CC(C)N(C(=O)C12C3(C(=O)OC(C)(C)C)C4C5(C#N)C3C1(C(=O)OC(C)(C)C)C5C42C(=O)OC(C)(C)C)C(C)C (stereo not drawn)

>  <experimental readout>
TGI

>  <val>
> 100 µM

$$$$
>  <compound>
CCOC(=O)C(C(C)=O)C1CC=CC1 (stereo not drawn)

>  <experimental readout>
TGI

>  <val>
> 100 µM

$$$$
>  <compound>
COc1cc([C@@H]2c3cc4c(cc3[C@@H](NC(=O)c3cccc(C#N)c3)C3COC(=O)[C@@H]32)OCO4)cc(OC)c1O (stereo partly drawn)

>  <experimental readout>
TGI

>  <val>
8.83 µM

$$$$
>  <compound>
C=CCN(c1cc(OCc2ccccc2)c2c(c(C)cn2S(=O)(=O)c2ccc([N+](=O)[O-])cc2)c1[N+](=O)[O-])S(C)(=O)=O

>  <experimental readout>
TGI

>  <val>
> 100 µM

$$$$
>  <compound>
C#CCC(O)c1ccccc1C(O)CC#C (stereo not drawn)

>  <experimental readout>
TGI

>  <val>
> 100 µM

$$$$
>  <compound>
C/C=C/C1(C)/C(=N\O)C(C)(CCC)C(=O)N1O (stereo not drawn)

>  <experimental readout>
TGI

>  <val>
> 100 µM

$$$$
>  <compound>
COC(=O)C1=C(C(=O)OC)C2(C)OC1C(=O)C21CC1 (stereo not drawn)

>  <experimental readout>
TGI

>  <val>
> 100 µM

$$$$
>  <compound>
O=c1cc(-c2ccccc2)oc2cc(OCc3cn(Cc4ccc(F)cc4)nn3)cc(OCc3cn(Cc4ccc(F)cc4)nn3)c12

>  <experimental readout>
TGI

>  <val>
33.1 µM

$$$$
>  <compound>
CCOC(=O)c1cnc2c(C)cc(C)cc2c1NCCCN(C)C

>  <experimental readout>
TGI

>  <val>
31.7 µM

$$$$
>  <compound>
CC(=O)NC(CCCN(Cc1ccccc1)C(=O)NCCCl)C(=O)NCc1ccccc1 (stereo not drawn)

>  <experimental readout>
TGI

>  <val>
> 100 µM

$$$$
>  <compound>
O=C1c2ccccc2C(=O)c2[nH]c(Cc3ccccc3F)nc21

>  <experimental readout>
TGI

>  <val>
> 100 µM

$$$$
>  <compound>
CN(C)c1ccc2nc3ccc(=[N+](C)C)c([N+](=O)[O-])c-3sc2c1

>  <experimental readout>
TGI

>  <val>
16.1 µM

$$$$
>  <compound>
CC(C)c1ccc(COCc2cc(CN3CCCC3)c(O)c3ncccc23)cc1

>  <experimental readout>
TGI

>  <val>
4.53 µM

$$$$
>  <compound>
O=S(=O)(O)c1ccc(-c2c3nc(c(-c4ccc(S(=O)(=O)O)cc4)c4ccc([nH]4)c(-c4ccc(S(=O)(=O)O)cc4)c4nc(c(-c5ccc(S(=O)(=O)O)cc5)c5ccc2[nH]5)C=C4)C=C3)cc1

>  <experimental readout>
TGI

>  <val>
> 100 µM

$$$$
